- System: MT-2 human T-cells
- experiment notes: Cytotoxicity, inhibition of MT-2 cell growth
- Format: cell-based
- recorded conditions: Table 4, MT-2 cells; read-out: Cytotoxicity (CC50)
experimental endpoint: CC50 (µM)
Give a bare numeral; the unit µM is implied.

Entry N#C/C=C/c1cc(Cl)cc(Oc2ccccc2OCCn2ccc(=O)[nH]c2=O)c1 [JLJ532] ; CC50 = 18

Entry N#C/C=C/c1cc(F)cc(Oc2ccccc2OCCn2ccc(=O)[nH]c2=O)c1 [JLJ510] ; CC50 = 70

Entry N#C/C=C/c1cc(Cl)cc(Oc2ccc(F)cc2OCCn2ccc(=O)[nH]c2=O)c1 [JLJ516] ; CC50 = 62

----------
- System: HIV-1 variant containing the K103N/Y181C mutations
- experiment notes: Anti-HIV-1 activity against double-mutant strain in MT-2 cells (MTT)
- Type: cell-based
- recorded conditions: Human immunodeficiency virus 1, MT2, read-out: EC50 K103N/Y181C variant
experimental endpoint: pEC50
Please report pEC50 as the negative decimal logarithm of the molar concentration, giving only the number.

Entry N#C/C=C/c1cc(Cl)cc(Oc2ccc(Cl)cc2OCCn2ccc(=O)[nH]c2=O)c1 ; pEC50 = 6.66

Entry N#Cc1cc(Cl)cc(Oc2ccc(Cl)cc2OCCn2cc(Cl)c(=O)[nH]c2=O)c1 ; pEC50 = 6.24

----------
- Tested on: WT HIV-1 (IIIB strain)
- experiment notes: Anti-HIV-1 activity, protection of infected MT-2 cells (MTT)
- Format: cell-based
- recorded conditions: Human immunodeficiency virus 1, IIIB, MT2, read-out: EC50, initial WT assay
experimental endpoint: EC50 (nM)
Give a bare numeral; the unit nM is implied.

Entry N#C/C=C/c1cc(Cl)cc(Oc2ccc(Cl)cc2OCCn2ccc(=O)[nH]c2=O)c1 ; EC50 = 0.024

----------
- Tested on: WT HIV-1 (IIIB strain)
- experiment notes: Anti-HIV-1 activity, protection of infected MT-2 cells (MTT)
- Type: cell-based
- recorded conditions: Human immunodeficiency virus 1, IIIB, MT2, running text; read-out: EC50 against WT HIV-1
experimental endpoint: log10 EC50 (log10 of the value in nM)
Would you kindly interpret these values as log10 of EC50 expressed in nM?

Entry N#Cc1ccc(Oc2cc(Cl)cc(Cl)c2)c(OCCn2ccc(=O)[nH]c2=O)c1 ; log10 EC50 = 1.30

Entry COc1cc(Cl)ccc1Oc1cc(Cl)cc(C#N)c1 ; log10 EC50 = 4.00

Entry N#Cc1ccc(Oc2cc(Cl)ccc2Cl)c(OCCn2ccc(=O)[nH]c2=O)c1 ; log10 EC50 = 1.63

Entry N#Cc1cc(Cl)cc(Oc2ccc(Cl)cc2OCCn2cc(Cl)c(=O)[nH]c2=O)c1 ; log10 EC50 = 1.23

Entry N#Cc1ccc(Oc2ccccc2Cl)c(OCCn2ccc(=O)[nH]c2=O)c1 ; log10 EC50 = 2.43

Entry N#Cc1ccc(Oc2cc(Cl)ccc2Cl)c(OCCc2ccncc2)c1 ; log10 EC50 = 2.88

Entry N#C/C=C/c1cccc(Oc2ccc(C#N)cc2OCCn2ccc(=O)[nH]c2=O)c1 ; log10 EC50 = 1.18

Entry O=c1ccn(CCOc2cc(Cl)cc(Cl)c2Oc2ccccc2Cl)c(=O)[nH]1 ; log10 EC50 = 2.92

Entry N#C/C=C/c1cccc(Oc2ccc(Cl)cc2OCCn2ccc(=O)[nH]c2=O)c1 ; log10 EC50 = 0.70

Entry N#Cc1ccc(Oc2cccc(OCCCO)c2)c(OCCn2ccc(=O)[nH]c2=O)c1 ; log10 EC50 = 3.26

Entry N#Cc1ccc(Oc2cc(Cl)ccc2Cl)c(OCc2ccncc2)c1 ; log10 EC50 = 4.08

Entry N#Cc1cc(Cl)cc(Oc2ccc(Cl)cc2OCCn2ccc(=O)[nH]c2=O)c1 ; log10 EC50 = 1.15

Entry Cc1ccc(OCCn2ccc(=O)[nH]c2=O)c(Cc2ccccc2)c1 ; log10 EC50 = 3.70

Entry COCCOc1cccc(Oc2ccc(C#N)cc2OCCn2ccc(=O)[nH]c2=O)c1 ; log10 EC50 = 2.73

Entry CNc1ccc(Oc2cc(Cl)cc(/C=C/C#N)c2)c(OCCn2ccc(=O)[nH]c2=O)c1 ; log10 EC50 = 1.30

Entry N#Cc1ccc(Oc2cc(Cl)ccc2Cl)c(COCc2ccncc2)c1 ; log10 EC50 = 3.26

Entry N#Cc1cc(F)c(Oc2ccccc2Cl)c(OCCn2ccc(=O)[nH]c2=O)c1 ; log10 EC50 = 2.20

----------
- Test system: WT HIV-1 (IIIB strain)
- experiment notes: Anti-HIV-1 activity, protection of infected MT-2 cells (MTT)
- Type: cell-based
- recorded conditions: Table 4, catechol diether derivatives, MT-2 cells; read-out: Anti-HIV-1 Activity (EC50)
experimental endpoint: pEC50
Please report pEC50 as the negative decimal logarithm of the molar concentration, giving only the number.

Entry N#C/C=C/c1cc(Cl)cc(Oc2ccccc2OCCn2ccc(=O)[nH]c2=O)c1 ; pEC50 = 9.51

Entry N#C/C=C/c1cc(F)cc(Oc2ccc(OCCN3CCOCC3)cc2OCCn2ccc(=O)[nH]c2=O)c1 ; pEC50 = 6.28

Entry N#C/C=C/c1cc(Cl)cc(Oc2ccc(OCCN3CCOCC3)cc2OCCn2ccc(=O)[nH]c2=O)c1 ; pEC50 = 5.96

Entry N#C/C=C/c1cc(Cl)cc(Oc2ccc(Br)cc2OCCn2ccc(=O)[nH]c2=O)c1 ; pEC50 = 8.04

Entry N#C/C=C/c1cc(Br)cc(Oc2ccc(Cl)cc2OCCn2ccc(=O)[nH]c2=O)c1 ; pEC50 = 8.28

----------
- Tested on: WT HIV-1 (IIIB strain)
- experiment notes: Anti-HIV-1 activity, protection of infected MT-2 cells (MTT)
- Type: cell-based
- recorded conditions: Table 5, MT-2 cells; read-out: EC50 WT
pEC50: −log10 of the molar value.
Please note: 1 (yes) applies when pEC50 is 9 or greater, and 0 (no) applies otherwise.

Exam item: Answer whether pEC50 of N#C/C=C/c1cc(F)cc(Oc2ccc(Cl)cc2OCCn2ccc(=O)[nH]c2=O)c1 [JLJ505] is greater than or equal to 9.
Marked response: 0 (no)

Exam item: Answer whether pEC50 of N#C/C=C/c1cc(F)cc(Oc2ccc(F)cc2OCCn2ccc(=O)[nH]c2=O)c1 [JLJ506] is greater than or equal to 9.
Marked response: 1 (yes)

Exam item: Answer whether pEC50 of N#C/C=C/c1cc(Cl)cc(Oc2ccccc2OCCn2ccc(=O)[nH]c2=O)c1 [JLJ532] is greater than or equal to 9.
Marked response: 1 (yes)

----------
Answer each item with its documented CC50.
- Test system: MT-2 human T-cells
- experiment notes: Cytotoxicity, inhibition of MT-2 cell growth
- Format: cell-based
- recorded conditions: Table 5, MT-2 cells; read-out: Average Cytotoxicity (CC50)
Give a bare numeral; the unit µM is implied.

Summary: N#C/C=C/c1cc(Cl)cc(Oc2ccc(F)cc2OCCn2ccc(=O)[nH]c2=O)c1 [JLJ516] , MT-2 human T-cells, CC50 = 63

Summary: N#C/C=C/c1cc(Cl)cc(Oc2ccccc2OCCn2ccc(=O)[nH]c2=O)c1 [JLJ532] , MT-2 human T-cells, CC50 = 11

Summary: N#C/C=C/c1cc(F)cc(Oc2ccccc2OCCn2ccc(=O)[nH]c2=O)c1 [JLJ510] , MT-2 human T-cells, CC50 = 85

----------
- Tested on: MT-2 human T-cells
- experiment notes: Cytotoxicity, inhibition of MT-2 cell growth
- Type: cell-based
- recorded conditions: human
Answer each item with its documented CC50.
Give a bare numeral; the unit µM is implied.

Summary: O=c1ccn(CCOc2ccc(Cl)cc2Cc2ccccc2)c(=O)[nH]1 , MT-2 human T-cells, CC50 = 23

Summary: Cc1cn(CCOc2ccc(Cl)cc2Cc2ccccc2)c(=O)[nH]c1=O , MT-2 human T-cells, CC50 = 22

Summary: N#Cc1cc(Cl)cc(Oc2ccc(Cl)cc2OCCn2cc(Cl)c(=O)[nH]c2=O)c1 , MT-2 human T-cells, CC50 = 21

----------
- experiment notes: Cytotoxicity, inhibition of MT-2 cell growth
- Type: cell-based, human
- recorded conditions: human
I'd appreciate it if you marked entries T when CC50 is lower than 10 µM and F when it is not.

Exam item: I'd appreciate it if you could check whether O=c1ccn(CCOc2ccccc2Oc2ccc3[nH]ccc3c2)c(=O)[nH]1 [JLJ547] has CC50 smaller than 10 µM.
Marked response: F

Exam item: I'd appreciate it if you could check whether N#Cc1cc2cc(Oc3ccccc3OCCn3ccc(=O)[nH]c3=O)ccn2c1 [JLJ555] has CC50 smaller than 10 µM.
Marked response: F

Exam item: I'd appreciate it if you could check whether O=c1ccn(CCOc2ccc(Cl)cc2Oc2ccc3occc3c2)c(=O)[nH]1 [JLJ539] has CC50 smaller than 10 µM.
Marked response: F

Exam item: I'd appreciate it if you could check whether Cc1cc2cc(Oc3ccccc3OCCn3ccc(=O)[nH]c3=O)ccn2c1 [JLJ550] has CC50 smaller than 10 µM.
Marked response: T

Exam item: I'd appreciate it if you could check whether Cc1cc2cc(Oc3cc(Cl)ccc3OCCn3ccc(=O)[nH]c3=O)ccc2o1 [JLJ538] has CC50 smaller than 10 µM.
Marked response: T

Exam item: I'd appreciate it if you could check whether CNc1ccc(Oc2cc(Cl)cc(/C=C/C#N)c2)c(OCCn2ccc(=O)[nH]c2=O)c1 [Compound 43] has CC50 smaller than 10 µM.
Marked response: F

Exam item: I'd appreciate it if you could check whether O=c1ccn(CCOc2ccc(Cl)cc2Oc2ccc3ccoc3c2)c(=O)[nH]1 [JLJ552] has CC50 smaller than 10 µM.
Marked response: F
